Reported TGI values for the following compounds.
- System: SW-620 colon
- experimentalDetails: NCI tumour cell line growth inhibition, 48 h
quantityMeasured: TGI

- compound: "O=C1Cc2cc(CCn3cncn3)c(Cl)cc2N1"
  quantityMeasured: "TGI"
  result: "> 100 µM"
- compound: "COc1cc(-c2nc3ccccc3o2)cc(CN2CCCCC2)c1O"
  quantityMeasured: "TGI"
  result: "8.13 µM"
- compound: "NC(CCP(=O)(O)O)C(=O)O (stereo not given)"
  quantityMeasured: "TGI"
  result: "> 100 µM"
- compound: "CC1=C(C(=O)Nc2ccc(F)c(Cl)c2)C(c2cccc(Oc3ccccc3)c2)NC(=S)N1 (stereo not given)"
  quantityMeasured: "TGI"
  result: "44.2 µM"
- compound: "Cn1c(=O)cc2[nH]c3ccccc3n2c1=O"
  quantityMeasured: "TGI"
  result: "61.3 µM"
- compound: "C1CSCCSCSCCS1"
  quantityMeasured: "TGI"
  result: "> 100 µM"
- compound: "O=c1[nH][nH]c(=O)n1/N=C/c1ccccc1"
  quantityMeasured: "TGI"
  result: "> 100 µM"
- compound: "CCC1(CC)N=C(C(F)(F)F)c2cc(C(=O)C(F)(F)F)c3ccccc3c2N1"
  quantityMeasured: "TGI"
  result: "> 100 µM"
- compound: "CCOC(=N)CC(=O)Nc1ccccc1"
  quantityMeasured: "TGI"
  result: "> 67.6 µM"
- compound: "C=CCCCN1CCCC(C)C1=S (stereo not given)"
  quantityMeasured: "TGI"
  result: "> 100 µM"
- compound: "COC(=O)c1c(O)ccc2c1c1c(n2Cc2ccccc2OC)C(=O)c2ccccc2C1=O"
  quantityMeasured: "TGI"
  result: "29.8 µM"
- compound: "O=[N+]([O-])c1cc(-[n+]2cc([O-])on2)ccc1Cl"
  quantityMeasured: "TGI"
  result: "26.2 µM"
- compound: "Cc1c2ccncc2c(C)c2c1[nH]c1ccc(Oc3ccccc3)cc12"
  quantityMeasured: "TGI"
  result: "> 100 µM"
- compound: "COc1cc([C@@H]2c3cc4c(cc3[C@@H](OC(=O)c3cccc(N)c3)C3COC(=O)[C@@H]32)OCO4)cc(OC)c1O (stereo not given in full)"
  quantityMeasured: "TGI"
  result: "> 100 µM"
- compound: "CCC(=O)N1C/C(=C/c2ccc(Br)cc2)C(=O)/C(=C/c2ccc(Br)cc2)C1"
  quantityMeasured: "TGI"
  result: "0.82 µM"
- compound: "CCCCNC(=S)OCCC(C)CCCC(C)C (stereo not given)"
  quantityMeasured: "TGI"
  result: "> 100 µM"
- compound: "COc1ccccc1/C=C\\C(=O)C1COCN1 (stereo not given)"
  quantityMeasured: "TGI"
  result: "19.4 µM"
- compound: "C#C[C@@]1(O)[C@@H](CO)O[C@@H](n2cc(C(F)(F)F)c3c(N)ncnc32)[C@@H]1O"
  quantityMeasured: "TGI"
  result: "> 21.7 µM"
- compound: "CC1=NN2C(c3ccc([N+](=O)[O-])cc3)=CSC2=NC(C)(C)C1"
  quantityMeasured: "TGI"
  result: "> 100 µM"
- compound: "COc1cc2ncnc(Nc3ccc(Oc4ccnc(C)c4)c(C)c3)c2cc1NC(=O)CC1CCSS1 (stereo not given)"
  quantityMeasured: "TGI"
  result: "2.71 µM"
- compound: "Nc1nc(N)c2ncn(CCOC(c3ccccc3)P(=O)(O)O)c2n1 (stereo not given)"
  quantityMeasured: "TGI"
  result: "> 100 µM"
- compound: "O=C(CCC(=O)Nc1cccc(C(F)(F)F)c1)CC(=O)c1ccc2ccccc2c1"
  quantityMeasured: "TGI"
  result: "> 100 µM"
- compound: "CCS(=O)c1c2cc(OC)ccc2nc2ccc(OC)cc12 (stereo not given)"
  quantityMeasured: "TGI"
  result: "> 65.9 µM"
- compound: "COc1cc2c(c(OC)c1OC)-c1ccc(SC)c(=O)cc1[C@@H](NC(=O)C(F)(F)F)CC2"
  quantityMeasured: "TGI"
  result: "> 100 µM"
- compound: "CCCCCCCCCCCCCCCC(=O)OCCOCCOCCOCCOCCOC(=O)CCCCCCCCCCCCCCC"
  quantityMeasured: "TGI"
  result: "> 100 µM"
